assay: DAX1 (NR0B1) inhibitors on StAR promoter, primary screen, cell-based, luminescence, SF-1 (NR5A1), full-length DAX-1 (AID 652010); settings: HEK293T StAR-luciferase reporter, SF-1/DAX-1 repression relief; at 6.8 µM;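 also: 0% = DAX-1 cells with DMSO and 100% = cells lacking DAX-1 with DMSO; higher inhibition means more luminescence from relief of DAX-1 repression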
The whole screen tested about 370,000 compounds, of which about 4,100 (1.1%) were called active.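 The calls were made as follows: active = inhibition above the mean over all tested compounds plus 3 SD (cut at about 3.6% in these data); inactive = the rest.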 The full list was thinned out, with actives kept by preference.
Allowed answers: class 1 = active, class 0 = inactive

Prompt: # outcome recorded in this test, key = COc1ccc(C#CCNCc2ccc(OC)cc2OC)cc1
Completion: class 0

Prompt: # outcome recorded in this test, key = CC(C)CNC(=O)OCc1cn(Cc2ccc(F)cc2)nn1
Completion: class 0

Prompt: # outcome recorded in this test, key = O=[N+]([O-])c1ccc2nc(-c3ccccn3)[nH]c2c1
Completion: class 1

Prompt: # outcome recorded in this test, key = O=C(Nc1ccc([N+](=O)[O-])cc1)OCCc1ccccn1
Completion: class 0

Prompt: # outcome recorded in this test, key = COc1cccc(/C=C2\CC3(OC(C)=O)CCCN2C3)c1 (stereo unspecified)
Completion: class 0

Prompt: # outcome recorded in this test, key = O=[N+]([O-])c1ccc(N/N=C2/CCCCC2c2ccccn2)c([N+](=O)[O-])c1 (stereo unspecified)
Completion: class 0
